In this section, each of the binders is paired with its reported Functional assay IL-8.
Target: T1, CD134 expressed on the cell surface of HT1080_OX40 cells (human, UniProt P43489 29-277); also: test concentration or dose not given here
T1 sequence (looked up): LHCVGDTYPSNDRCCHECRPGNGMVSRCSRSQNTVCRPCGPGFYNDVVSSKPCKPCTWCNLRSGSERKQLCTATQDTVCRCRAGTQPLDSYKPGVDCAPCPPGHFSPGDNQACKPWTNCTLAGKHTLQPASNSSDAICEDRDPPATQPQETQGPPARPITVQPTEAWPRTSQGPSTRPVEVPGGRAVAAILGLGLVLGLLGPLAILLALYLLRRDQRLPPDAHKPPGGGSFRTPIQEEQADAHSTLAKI
Assay: cell-based or functional assay
Quick note: give the figure in abs. corr., leave out the unit.

| binder | Functional assay IL-8 [abs. corr.] |
| --- | --- |
| P018.S.12.A.E04 (antibody, V domains shown, V regions on human Ig constant parts; also called AB134_75) VH: QSVEESGGRLVTPGTPLTLTCTVSGFSLNSYDMSWVRQAPGKGLEWIGFISASGSIYFANWAKGRFTISKTSTTVDLKITSPTTEDTATYFCASDSYGWAYVYYFNLWGPGTLVTVSS VL: AVVLTQTPASVSAAVGGTVTINCRASEDVGSYLGWYQQRAGQPPKLLMHDASDLASGVPSRFSGSGSGTEFTLTISGVQSDDAATYYCQSAWLGTNTDKMAFGGGTEVVVK | 0.455 |

// P018.S.11.A.E05 (antibody, V domains shown, V regions on human Ig constant parts; also called AB134_36) VH: QSLEESGGRLVTPGTPLTLNCTASGFSLSAYWMGWVRQAPGKGLEWIGIIYATGSTYYTTWAKGRFTISRTSTTVDLKMTSPTTEDTATYFCGRGDGYESLNLWGPGTLVTVSS VL: AQVLTQTPSSVSAAVGGTVTINCQSSQSVYSNNLLSWYQQKPGQPPKRLIYGASTLDSGVSSRFKGSGSGTQFTLTISGMQSDDAATYYCLGYYSGGIYVFGGGTEVVVK : Functional assay IL-8 value = -0.265
